assay: Determination of the solubility in organic solvents; type: physicochemical; details: solvent dichloromethane, 5 ml, added until saturation
observable: Solubility (g/ml) Dichloromethane (g/mL)

These recorded examples may help you get a feel for the data.
compound	display unit	Solubility (g/ml) Dichloromethane
c1ccc(N(c2ccc(-c3ccc(N(c4ccccc4)c4ccc5ccccc5c4)cc3)cc2)c2ccc3ccccc3c2)cc1 [Example5]	g/mL	0.471
c1ccc(N(c2ccc(-c3ccc(N(c4ccccc4)c4cccc5ccccc45)cc3)cc2)c2cccc3ccccc23)cc1	g/mL	0.021
c1ccc(N(c2ccc(-c3ccc(N(c4ccccc4)c4ccc5ccccc5c4)cc3)cc2)c2ccc3ccccc3c2)cc1 [Comparative Example5]	g/mL	0.195
c1ccc(N(c2ccc(-c3ccc(N(c4ccccc4)c4ccc5ccccc5c4)cc3)cc2)c2ccc3ccccc3c2)cc1 [Comparative Example7]	g/mL	0.209

P = c1ccc(N(c2ccc(-c3ccc(N(c4ccccc4)c4ccc5ccccc5c4)cc3)cc2)c2ccc3ccccc3c2)cc1 [Comparative Example6]
Q = Cc1ccc(N(c2ccccc2)c2ccc(-c3ccc(N(c4ccccc4)c4ccc(C)cc4)cc3)cc2)cc1
Asked: Pick the one with the larger Solubility (g/ml) Dichloromethane: P vs Q Please respond with the label that marks your chosen entry.
Given back: Q

====

assay: Determination of the solubility in organic solvents; type: physicochemical; details: solvent xylene, 5 ml, added until saturation
observable: Solubility (g/ml) Xylene (g/mL)

a = c1ccc(N(c2ccc(-c3ccc(N(c4ccccc4)c4ccc5ccccc5c4)cc3)cc2)c2ccc3ccccc3c2)cc1 [Example5]
b = c1ccc(N(c2ccc(-c3ccc(N(c4ccccc4)c4cccc5ccccc45)cc3)cc2)c2cccc3ccccc23)cc1 [Comparative Example4]
Asked: Given the two records a and b , choose the one whose Solubility (g/ml) Xylene value is lower. Please respond with the label that marks your chosen entry.
Given back: b
(b: 0.002 g/mL, a: 0.558 g/mL)

I = c1ccc(N(c2ccc(-c3ccc(N(c4ccccc4)c4ccc5ccccc5c4)cc3)cc2)c2ccc3ccccc3c2)cc1 [Comparative Example5]
II = c1ccc(N(c2ccc(-c3ccc(N(c4ccccc4)c4ccc5ccccc5c4)cc3)cc2)c2ccc3ccccc3c2)cc1 [Comparative Example7]
Asked: Pick the one with the larger Solubility (g/ml) Xylene: I vs II Please respond with the label that marks your chosen entry.
Given back: II
(II: 0.155 g/mL, I: 0.103 g/mL)

A = Cc1ccc(N(c2ccccc2)c2ccc(-c3ccc(N(c4ccccc4)c4ccc(C)cc4)cc3)cc2)cc1 [Comparative Example2]
B = Cc1ccc(N(c2ccccc2)c2ccc(-c3ccc(N(c4ccccc4)c4ccc(C)cc4)cc3)cc2)cc1 [Example2]
C = c1ccc(N(c2ccc(-c3ccc(N(c4ccccc4)c4cccc5ccccc45)cc3)cc2)c2cccc3ccccc23)cc1 [Example4]
Asked: Sort the 3 compounds by Solubility (g/ml) Xylene; largest first, smallest last. List labels; respect the requested ordering.
Given back: B, A, C
(B: 0.334 g/mL, A: 0.152 g/mL, C: 0.009 g/mL)

====

experiment: Determination of the solubility in organic solvents; assay type: physicochemical; conditions: chloroform, organic solvent or mixture, thermodynamic from solid, solvent chloroform, 5 ml, added until saturation; read-out: Solubility (g/ml) Chloroform
observable: solubility (g/mL)

sample smiles	solubility, g/mL
c1ccc(N(c2ccc(-c3ccc(N(c4ccccc4)c4ccc5ccccc5c4)cc3)cc2)c2ccc3ccccc3c2)cc1	0.632

a = c1ccc(N(c2ccc(-c3ccc(N(c4ccccc4)c4cccc5ccccc45)cc3)cc2)c2cccc3ccccc23)cc1
b = Cc1ccc(N(c2ccccc2)c2ccc(-c3ccc(N(c4ccccc4)c4ccc(C)cc4)cc3)cc2)cc1
Asked: Pick the one with the larger solubility: a vs b Please respond with the label that marks your chosen entry.
Given back: b
